Tested on: BCL2 G101V
Experiment: TR-FRET competitive binding assay, BCL2 G101V
Design: species or system human
Settings: ratio Ki BCL2 G101V / Ki BCL2 WT
quantityKind: TR_FRET EKI G101V/WT selectivty ratio

Some entries whose results are on file:
Cc1c(N(C(=O)c2cc(-c3cc4c(cc3C(=O)N3Cc5ccccc5C[C@H]3CN3CCCCC3)CN(C(=O)Cc3ccc(OCCN(C)C5CC5)cc3F)CC4)n(C)c2C)c2ccc(O)cc2)cc(C#N)n1C | 5.9
Cc1c(N(C(=O)c2cc(-c3cc4c(cc3C(=O)N3Cc5ccccc5C[C@H]3CN3CCCCC3)CN(C(=O)Cc3ccc(OCCN5CCOC(C)C5)cc3F)CC4)n(C)c2C)c2ccc(O)cc2)cc(C#N)n1C (single isomer, unassigned) [Example 108] | 5.1
Cc1c(N(C(=O)c2cc(-c3cc4c(cc3C(=O)N3Cc5ccccc5C[C@H]3C)CN(C(=O)COc3ccccc3)CC4)n(C)c2C)c2ccc(O)cc2)cc(C#N)n1C | 3.0

1: Cc1c(N(C(=O)c2cc(-c3cc4c(cc3C(=O)N3Cc5ccccc5C[C@H]3C)CN(C(=O)Cc3ccc(OCCN5CCOCC5)cc3)CC4)n(C)c2C)c2ccccc2)cnn1C(F)F
2: Cc1c(N(C(=O)c2cc(-c3cc4c(cc3C(=O)N3Cc5ccccc5C[C@H]3C)CN(C(=O)Cc3ccc(OCCN5CCSCC5)cc3)CC4)n(C)c2C)c2ccc(O)cc2)cc(C#N)n1C
[in] Between 1 and 2 , whose measured TR_FRET EKI G101V/WT selectivty ratio reads higher? Give the label of your selection.
[out] 1
